Here the recorded extinction coefficient is given for each entry.
- TARGET OR SYSTEM: γ-glutamyl transferase (γ-GT) (Homo sapiens)
- Construct: host or cells: control serum
- Sequence (P19440 381-569 limits assumed): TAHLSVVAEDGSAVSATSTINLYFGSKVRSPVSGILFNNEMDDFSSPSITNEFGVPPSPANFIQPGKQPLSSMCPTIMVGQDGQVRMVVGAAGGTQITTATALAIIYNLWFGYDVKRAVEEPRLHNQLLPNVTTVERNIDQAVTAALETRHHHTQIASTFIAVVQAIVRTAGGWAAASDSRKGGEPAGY
- Sequence (P19440 1-380 limits assumed): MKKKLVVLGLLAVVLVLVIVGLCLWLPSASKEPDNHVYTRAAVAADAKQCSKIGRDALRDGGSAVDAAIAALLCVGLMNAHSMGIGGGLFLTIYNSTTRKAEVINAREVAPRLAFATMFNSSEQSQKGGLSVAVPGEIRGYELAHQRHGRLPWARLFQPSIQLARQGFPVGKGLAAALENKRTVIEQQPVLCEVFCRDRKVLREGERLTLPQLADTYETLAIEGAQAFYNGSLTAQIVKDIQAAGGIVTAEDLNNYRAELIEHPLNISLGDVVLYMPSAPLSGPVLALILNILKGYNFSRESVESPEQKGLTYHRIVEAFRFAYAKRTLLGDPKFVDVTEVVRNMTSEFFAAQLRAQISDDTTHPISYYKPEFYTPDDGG
- TEST SUMMARY: Determination of the activity of γ-glutamyl transferase in a control serum at 25° C. with different substrates
- Assay type: biochemical
- MEASUREMENT SETUP: at the measurement wavelength: 546 nm (S1, S8, S9), 578 nm (S5), 405 nm (L-Glupa C)

| MOLECULE | TARGET OR SYSTEM | extinction coefficient / cm^2 μmol^-1 |
| --- | --- | --- |
| N.N.NC(CCC(=O)Nc1ccc(N=Nc2nccs2)c(CCC(=O)O)c1)C(=O)O (centres unmarked) | γ-glutamyl transferase (γ-GT) (Homo sapiens) | 2.8 |
| N.N.N#Cc1cc([N+](=O)[O-])ccc1N=Nc1ccc(NC(=O)CCC(N)C(=O)O)cc1CCC(=O)O (centres unmarked) | γ-glutamyl transferase (γ-GT) (Homo sapiens) | 7.8 |
| Cc1c(C#N)sc(N=Nc2ccc(NC(=O)CCC(N)C(=O)O)cc2CCC(=O)O)c1C#N.N.N (centres unmarked) | γ-glutamyl transferase (γ-GT) (Homo sapiens) | 8.9 |
| Cc1nc(N=Nc2ccc(NC(=O)CCC(N)C(=O)O)cc2CCC(=O)O)sc1C#N.N.N (centres unmarked) | γ-glutamyl transferase (γ-GT) (Homo sapiens) | 25.2 |
| N[C@@H](CCC(=O)Nc1ccc([N+](=O)[O-])c(C(=O)O)c1)C(=O)O [L-Glupa C, L-γ-glutamyl-3-carboxy-4-nitroanilide, reference compound] | γ-glutamyl transferase (γ-GT) (Homo sapiens) | 9.5 |

====

- TARGET OR SYSTEM: γ-glutamyl transferase (γ-GT) (Homo sapiens)
- Construct: host or cells: control serum
- TEST SUMMARY: Determination of the activity of γ-glutamyl transferase in a control serum at 25° C. with different substrates
- Type: biochemical
- MEASUREMENT SETUP: same control serum; 25° C.; substrate 1 mmole/liter; glycylglycine 150 mmole/liter, pH 7.9
- Experimental: 21.78 g. Glycylglycine were dissolved in about 900 ml. distilled water, the pH was adjusted to 7.9 with 2N aqueous sodium hydroxide solution, the amount of substrate calculated for a concentration of 1 mmole/liter was dissolved therein and the solution made up to 1000 ml. with distilled water. […] 2.0 ml. of the reagent described in (a) was pipetted into a cuvette, tempered to 25° C. and mixed with 0.2 ml. of sample. The extinction increase per minute was measured at an apropriate wavelength. […]
Here the recorded γ-GT activity found in control serum (U/liter at 25° C.) is given for each entry.
READOUT KIND: γ-GT activity found in control serum (U/liter at 25° C.) (U/liter)

| MOLECULE | REPORTED RESULT |
| --- | --- |
| N.N.NC(CCC(=O)Nc1ccc(N=Nc2nccs2)c(CCC(=O)O)c1)C(=O)O (centres unmarked) [S9] | 160 |
| N.N.N#Cc1cc([N+](=O)[O-])ccc1N=Nc1ccc(NC(=O)CCC(N)C(=O)O)cc1CCC(=O)O (centres unmarked) [S1] | 144 |
| Cc1nc(N=Nc2ccc(NC(=O)CCC(N)C(=O)O)cc2CCC(=O)O)sc1C#N.N.N (centres unmarked) [S8] | 101 |
| N[C@@H](CCC(=O)Nc1ccc([N+](=O)[O-])c(C(=O)O)c1)C(=O)O [L-Glupa C, L-γ-glutamyl-3-carboxy-4-nitroanilide, reference compound] | 128 |
| Cc1c(C#N)sc(N=Nc2ccc(NC(=O)CCC(N)C(=O)O)cc2CCC(=O)O)c1C#N.N.N (centres unmarked) [S5] | 77 |

====

- TEST SUMMARY: Absorption maxima (λmax., Δλmax.) and extinction coefficient of substrates and liberated coloured materials
- Format: physicochemical
- MEASUREMENT SETUP: difference of the absorption maxima
READOUT KIND: Δλmax. = λmax. (coloured material) - λmax. (substrate) (nm)

| COMPOUND | REPORTED RESULT |
| --- | --- |
| Cc1nc(N=Nc2ccc(NC(=O)CCC(N)C(=O)O)cc2CCC(=O)O)sc1C#N.N.N (centres unmarked) | 100 |
| N.N.NC(CCC(=O)Nc1ccc(N=Nc2snc3cc([N+](=O)[O-])ccc23)c(OCC(=O)O)c1)C(=O)O (centres unmarked) | 107 |
| N.N.N#Cc1cc([N+](=O)[O-])ccc1N=Nc1ccc(NC(=O)CCC(N)C(=O)O)cc1CCC(=O)O (centres unmarked) | 94 |
| N[C@@H](CCC(=O)Nc1ccc([N+](=O)[O-])c(C(=O)O)c1)C(=O)O [L-Glupa C, L-γ-glutamyl-3-carboxy-4-nitroanilide, reference compound] | 63 |
| Cc1c(C#N)sc(N=Nc2ccc(NC(=O)CCC(N)C(=O)O)cc2CCC(=O)O)c1C#N.N.N (centres unmarked) | 106 |

====

- TEST SUMMARY: Absorption maxima (λmax., Δλmax.) and extinction coefficient of substrates and liberated coloured materials
- Format: physicochemical
- MEASUREMENT SETUP: substrate
Where a name gives a salt, the structure may show the parent alone.
Would you please tag the item rule met when its λmax. (substrate) is 400 nm or above, and rule not met when it is below?

| COMPOUND | LABEL CLASS |
| --- | --- |
| Cc1c(C#N)sc(N=Nc2ccc(NC(=O)CCC(N)C(=O)O)cc2OCC(=O)O)c1C#N.N.N (stereo not shown) | rule met |
| N[C@@H](CCC(=O)Nc1ccc([N+](=O)[O-])c(C(=O)O)c1)C(=O)O [L-Glupa C, L-γ-glutamyl-3-carboxy-4-nitroanilide, reference compound] | rule not met |
| NC(CCC(=O)Nc1ccc(N=Nc2ccc([N+](=O)[O-])cc2)c(C(=O)O)c1)C(=O)O (stereo not shown) [S3, diammonium salt] | rule not met |
| CCOc1ccc2nc(N=Nc3ccc(NC(=O)CCC(N)C(=O)O)cc3OCC(=O)O)sc2c1.N.N (stereo not shown) | rule met |
| Cc1nc(N=Nc2ccc(NC(=O)CCC(N)C(=O)O)cc2CCC(=O)O)sc1C#N.N.N (stereo not shown) | rule met |

====

Here the recorded λmax. (substrate) is given for each entry.
- TEST SUMMARY: Absorption maxima (λmax., Δλmax.) and extinction coefficient of substrates and liberated coloured materials
- Assay type: physicochemical
- MEASUREMENT SETUP: substrate
Structures can show the parent of a compound that is named as a salt.

| COMPOUND | UNIT INFO | λmax. (substrate) |
| --- | --- | --- |
| N.N.N#Cc1cc([N+](=O)[O-])ccc1N=Nc1ccc(NC(=O)CCC(N)C(=O)O)cc1CCC(=O)O (stereo not drawn) | nm | 394 |
| CCCCSc1nnc(N=Nc2ccc(NC(=O)CCC(N)C(=O)O)cc2OCC(=O)O)s1 (stereo not drawn) [S12, diammonium salt] | nm | 424 |
| Cc1c(C#N)sc(N=Nc2ccc(NC(=O)CCC(N)C(=O)O)cc2CCC(=O)O)c1C#N.N.N (stereo not drawn) | nm | 424 |
| N.N.NC(CCC(=O)Nc1ccc(N=Nc2snc3cc([N+](=O)[O-])ccc23)c(OCC(=O)O)c1)C(=O)O (stereo not drawn) | nm | 453 |
| N.N.NC(CCC(=O)Nc1ccc(N=Nc2nccs2)c(CCC(=O)O)c1)C(=O)O (stereo not drawn) | nm | 394 |
| N.N.NC(CCC(=O)Nc1ccc(N=Nc2cc(Cl)c([N+](=O)[O-])cc2Cl)c(OCC(=O)O)c1)C(=O)O (stereo not drawn) | nm | 402 |
